Numbers sourced from patent US20100311642A1.

measurement_target: human V2 receptor (hV2R) (Homo sapiens)
Construct: expressed in transfected cells; host or cells: HEK-293
Sequence (P30518 whole entry): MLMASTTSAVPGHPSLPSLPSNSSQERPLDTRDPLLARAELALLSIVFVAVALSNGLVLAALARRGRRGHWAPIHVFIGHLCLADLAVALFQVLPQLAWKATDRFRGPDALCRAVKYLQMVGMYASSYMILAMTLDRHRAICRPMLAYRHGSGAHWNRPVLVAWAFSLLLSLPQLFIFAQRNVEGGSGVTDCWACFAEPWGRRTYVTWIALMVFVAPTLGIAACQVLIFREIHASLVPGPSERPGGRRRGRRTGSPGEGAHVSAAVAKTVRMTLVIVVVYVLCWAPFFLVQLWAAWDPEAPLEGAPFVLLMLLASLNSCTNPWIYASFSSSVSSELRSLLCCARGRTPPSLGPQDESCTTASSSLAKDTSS
test_method_notes: Antagonist transcriptional reporter gene assay, human V2 receptor
Assay type: cell-based
condition_context: hV2, HEK-293 reporter gene, vs AVP
parameter_measured: Efficacy Antag
I'd appreciate it if you included the unit after the number.

Known Efficacy Antag results, listed for orientation:
Could you share which Efficacy Antag value was measured for Cc1nc2c([nH]1)-c1ccccc1N(C(=O)c1ccc(NC(=O)c3ccccc3-c3ccccc3)cc1)CC2 [conivaptan] ?
92%

Please give the measured Efficacy Antag for this compound: Cc1ccccc1C(=O)Nc1ccc(C(=O)N2CCCC(O)c3cc(Cl)ccc32)c(C)c1 (stereo not shown) [tolvaptan]
97%

Form field: reported Efficacy Antag of Cc1ccccc1C(=O)Nc1ccc(C(=O)N2CCCC(N(C)C)c3ccccc32)cc1 (stereo not shown) [mozavaptan]
107%

We next turn to a different compound, shown below.
Bench note: what Efficacy Antag did CCOc1ccc2c(c1)C1(CCC(OCCN3CCOCC3)CC1)C(=O)N2S(=O)(=O)c1ccc(C(=O)NC(C)(C)C)cc1OC (stereo not shown) [satavaptan] show?
109%

###

measurement_target: rat V1a receptor (rV1aR) (Rattus norvegicus, UniProt P30560)
Construct: expressed in transfected cells; host or cells: HEK-293
Sequence (P30560 whole entry): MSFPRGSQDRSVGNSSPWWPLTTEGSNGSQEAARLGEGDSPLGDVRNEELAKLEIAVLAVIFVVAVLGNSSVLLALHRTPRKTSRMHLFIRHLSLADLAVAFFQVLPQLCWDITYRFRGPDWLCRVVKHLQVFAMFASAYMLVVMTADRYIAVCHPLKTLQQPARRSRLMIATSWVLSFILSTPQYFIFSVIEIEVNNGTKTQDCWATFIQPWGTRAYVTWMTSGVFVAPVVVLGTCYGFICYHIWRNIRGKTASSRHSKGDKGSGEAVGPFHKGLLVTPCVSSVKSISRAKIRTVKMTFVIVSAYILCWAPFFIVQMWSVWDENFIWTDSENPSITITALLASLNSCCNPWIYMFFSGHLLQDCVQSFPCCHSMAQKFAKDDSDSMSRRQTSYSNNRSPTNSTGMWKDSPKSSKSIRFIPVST
test_method_notes: Antagonist transcriptional reporter gene assay, rat V1a receptor
Assay type: cell-based
condition_context: rV1a, HEK-293 reporter gene, vs AVP
Listed here: items and their measured Efficacy Antag.

I'd like to know its Efficacy Antag. The compound in question is Cc1ccccc1C(=O)Nc1ccc(C(=O)N2CCCC(O)c3cc(Cl)ccc32)c(C)c1 (stereo not shown)
26%

Requested read-out: Efficacy Antag. Entry: Cc1nc2c([nH]1)-c1ccccc1N(C(=O)c1ccc(NC(=O)c3ccccc3-c3ccccc3)cc1)CC2
99%

Using the record for Cc1ccccc1C(=O)Nc1ccc(C(=O)N2CCCC(N(C)C)c3ccccc32)cc1 (stereo not shown) , report its Efficacy Antag.
40%

We now examine a further compound.
Field request: Efficacy Antag | item: CCOc1ccc2c(c1)C1(CCC(OCCN3CCOCC3)CC1)C(=O)N2S(=O)(=O)c1ccc(C(=O)NC(C)(C)C)cc1OC (stereo not shown)
6%

###

measurement_target: human V1a receptor (hV1aR) (Homo sapiens, UniProt P37288)
Sequence (P37288 whole entry): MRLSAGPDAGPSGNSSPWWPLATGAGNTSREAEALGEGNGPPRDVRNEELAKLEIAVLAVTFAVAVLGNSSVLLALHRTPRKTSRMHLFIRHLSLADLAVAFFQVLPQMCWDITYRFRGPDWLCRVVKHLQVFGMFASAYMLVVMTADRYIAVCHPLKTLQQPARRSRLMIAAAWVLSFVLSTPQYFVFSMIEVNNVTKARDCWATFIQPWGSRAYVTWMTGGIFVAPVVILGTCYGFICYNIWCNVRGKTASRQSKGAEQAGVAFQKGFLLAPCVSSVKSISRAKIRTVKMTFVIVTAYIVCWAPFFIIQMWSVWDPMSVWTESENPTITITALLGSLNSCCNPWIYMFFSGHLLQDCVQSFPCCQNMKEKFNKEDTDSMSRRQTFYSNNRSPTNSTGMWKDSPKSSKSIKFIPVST
test_method_notes: Antagonist transcriptional reporter gene assay, human V1a receptor
condition_context: hV1a, HEK-293 reporter gene, vs AVP; Ki calculated from IC50; read-out: Geomean Ki
parameter_measured: Ki

If you can, please state the reported Ki value of CCOc1ccc2c(c1)C1(CCC(OCCN3CCOCC3)CC1)C(=O)N2S(=O)(=O)c1ccc(C(=O)NC(C)(C)C)cc1OC (stereo not shown) [satavaptan] .
> 950 nM

###

Reported Ki by item:
measurement_target: rat V1a receptor (rV1aR) (Rattus norvegicus, UniProt P30560)
test_method_notes: Antagonist transcriptional reporter gene assay, rat V1a receptor
condition_context: rV1a, HEK-293 reporter gene, vs AVP; Ki calculated from IC50; read-out: Geomean Ki

Reported Ki for CCOc1ccc2c(c1)C1(CCC(OCCN3CCOCC3)CC1)C(=O)N2S(=O)(=O)c1ccc(C(=O)NC(C)(C)C)cc1OC (centres unmarked) : what is it?
> 0.338 µM

Okay, next one:
Would you mind telling me what Ki value was observed for Cc1ccccc1C(=O)Nc1ccc(C(=O)N2CCCC(O)c3cc(Cl)ccc32)c(C)c1 (centres unmarked) ?
> 0.338 µM

###

measurement_target: human V1a receptor (hV1aR) (Homo sapiens)
Construct: expressed in transfected cells; host or cells: HEK-293
test_method_notes: Antagonist transcriptional reporter gene assay, human V1a receptor
Assay type: cell-based
condition_context: hV1a, HEK-293 reporter gene, vs AVP
parameter_measured: Efficacy Antag (%)
// units = %; emit number, no label

Would you please look over these solved cases?
Lab note: need Efficacy Antag with human V1a receptor (hV1aR) (Homo sapiens) for entry CCOc1ccc2c(c1)C1(CCC(OCCN3CCOCC3)CC1)C(=O)N2S(=O)(=O)c1ccc(C(=O)NC(C)(C)C)cc1OC (stereo not shown) [satavaptan] , please look it up.
10

What value of Efficacy Antag on human V1a receptor (hV1aR) (Homo sapiens) does Cc1ccccc1C(=O)Nc1ccc(C(=O)N2CCCC(O)c3cc(Cl)ccc32)c(C)c1 (stereo not shown) [tolvaptan] have?
101

Give Efficacy Antag (human V1a receptor (hV1aR) (Homo sapiens)) of the following compound: Cc1ccccc1C(=O)Nc1ccc(C(=O)N2CCCC(N(C)C)c3ccccc32)cc1 (stereo not shown) [mozavaptan]
85

Okay, next one:
Field: Efficacy Antag (human V1a receptor (hV1aR) (Homo sapiens)). Entry: Cc1nc2c([nH]1)-c1ccccc1N(C(=O)c1ccc(NC(=O)c3ccccc3-c3ccccc3)cc1)CC2 [conivaptan]
81

###

measurement_target: rat V2 receptor (rV2R) (Rattus norvegicus)
Construct: expressed in transfected cells; host or cells: HEK-293
Sequence (Q00788 whole entry): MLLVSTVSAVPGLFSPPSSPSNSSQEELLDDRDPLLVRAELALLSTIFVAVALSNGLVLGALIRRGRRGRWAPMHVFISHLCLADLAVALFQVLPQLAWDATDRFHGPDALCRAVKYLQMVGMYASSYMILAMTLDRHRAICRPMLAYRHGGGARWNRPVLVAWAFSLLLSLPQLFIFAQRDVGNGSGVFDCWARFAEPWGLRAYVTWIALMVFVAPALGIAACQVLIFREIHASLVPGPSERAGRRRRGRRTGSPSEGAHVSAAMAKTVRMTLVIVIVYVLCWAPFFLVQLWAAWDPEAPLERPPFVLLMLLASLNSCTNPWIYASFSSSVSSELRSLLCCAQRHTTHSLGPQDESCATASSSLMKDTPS
test_method_notes: Antagonist transcriptional reporter gene assay, rat V2 receptor
Type: cell-based
condition_context: rV2, HEK-293 reporter gene, vs AVP
Description: Agonist activity of compounds on the human V2 receptor (hV2R) and the rat V2 receptor (rV2R) was determined in a transcriptional reporter gene assay in which HEK-293 cells were transiently transfected with either the human or rat V2 receptor, and a reporter DNA containing cyclic-AMP responsive promoter elements regulating expression of firefly luciferase. See Castarion, M. J., Spevak, W., Biochem Biophys Res Commun.1994 Jan. […]
The compounds listed here are annotated with their Efficacy Antag.
Your answer should be a plain number; it is taken to be in %.

Some compounds with known Efficacy Antag results, for comparison:
I am curious: what Efficacy Antag value has been reported for Cc1ccccc1C(=O)Nc1ccc(C(=O)N2CCCC(N(C)C)c3ccccc32)cc1 (stereo not shown) ?
85

Which value of Efficacy Antag has been reported for CCOc1ccc2c(c1)C1(CCC(OCCN3CCOCC3)CC1)C(=O)N2S(=O)(=O)c1ccc(C(=O)NC(C)(C)C)cc1OC (stereo not shown) in the records?
100

Others:
I have this compound here, Cc1ccccc1C(=O)Nc1ccc(C(=O)N2CCCC(O)c3cc(Cl)ccc32)c(C)c1 (stereo not shown) , and I need its recorded Efficacy Antag.
102

Need Efficacy Antag, item Cc1nc2c([nH]1)-c1ccccc1N(C(=O)c1ccc(NC(=O)c3ccccc3-c3ccccc3)cc1)CC2
97
